test system: TC-YIK (Other Solid Carcinomas); test: combination Emax (second highest fraction inhibited in the dose matrix, 72 h); higher = more inhibition; extreme values may be limits of the assay
recorded.endpoint: combination Emax

The following compounds have reported results that may help.
{"columns": ["compound", "combination Emax"],
 "data": [
  ["NC1(C(=O)N[C@@H](CCO)c2ccc(Cl)cc2)CCN(c2ncnc3[nH]ccc23)CC1 [Capivasertib] + CCN(CCO)CCCOc1ccc2c(Nc3cc(CC(=O)Nc4cccc(F)c4)[nH]n3)ncnc2c1 [AZD2811] (first compound max 10 µM, 7x7, partner max 1 µM)", 0.95],
  ["O=C(c1cc(Cc2n[nH]c(=O)c3ccccc23)ccc1F)N1CCN(C(=O)C2CC2)CC1 [Olaparib] + CC1(C)CCC(CN2CCN(c3ccc(C(=O)NS(=O)(=O)c4ccc(NCC5CCOCC5)c([N+](=O)[O-])c4)c(Oc4cnc5[nH]ccc5c4)c3)CC2)=C(c2ccc(Cl)cc2)C1 [Venetoclax] (first compound max 10 µM, 7x7, partner max 1 µM)", 0.403]
]}

Consider the record given below.
*Q* What measured combination Emax goes with CN(CCO)CC[C@H](CSc1ccccc1)Nc1ccc(S(=O)(=O)NC(=O)c2ccc(N3CCC([C@@H](O)c4ccccc4-c4ccc(Cl)cc4)CC3)cc2)cc1S(=O)(=O)C(F)(F)F [AZD4320] + CC(=O)O[C@H]1C(=O)[C@@]2(C)[C@H]([C@H](OC(=O)c3ccccc3)[C@]3(O)C[C@H](OC(=O)[C@H](O)[C@@H](NC(=O)c4ccccc4)c4ccccc4)C(C)=C1C3(C)C)[C@]1(OC(C)=O)CO[C@@H]1C[C@@H]2O [Paclitaxel] (first compound max 1 µM, 7x7, partner max 3 µM) ?
*A* 1

----------
tested on: BICR78 (Oral Cavity Carcinoma); experiment: Bliss excess, mean over the matrix (fraction); higher = more synergy;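 further: after 72 h of two-drug dosing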
recorded.endpoint: Bliss excess
// return a plain number; no unit text

The following compounds have reported results that may help.
{"columns": ["compound", "recorded.endpoint", "experimental.result"],
 "data": [
  ["NC1(C(=O)N[C@@H](CCO)c2ccc(Cl)cc2)CCN(c2ncnc3[nH]ccc23)CC1 [Capivasertib] + Cn1cnc2c(F)c(Nc3ccc(Br)cc3Cl)c(C(=O)NOCCO)cc21 [Selumetinib] (first compound max 10 µM, 7x7, partner max 10 µM)", "Bliss excess", -0.0016],
  ["NC1(C(=O)N[C@@H](CCO)c2ccc(Cl)cc2)CCN(c2ncnc3[nH]ccc23)CC1 [Capivasertib] + C[C@@H]1COCCN1C2=NC(=NC(=C2)C3(CC3)[S@](=N)(=O)C)C4=C5C=CNC5=NC=C4 [AZD6738] (first compound max 10 µM, 7x7, partner max 10 µM)", "Bliss excess", 0.0163],
  ["Cc1c2c(nn1C)CSCc1cc(n(C)n1)CSc1cc(c3ccccc3c1)OCCCc1c(C(=O)O)n(C)c3c-2c(Cl)ccc13 [AZD5991] + Cc1cc2ncnn2cc1Nc1ncc2c(n1)n(C1CCOCC1)c(=O)n2C [AZD7648] (first compound max 1 µM, 7x7, partner max 10 µM)", "Bliss excess", -0.0172],
  ["NC1(C(=O)N[C@@H](CCO)c2ccc(Cl)cc2)CCN(c2ncnc3[nH]ccc23)CC1 [Capivasertib] + CCN(CCO)CCCOc1ccc2c(Nc3cc(CC(=O)Nc4cccc(F)c4)[nH]n3)ncnc2c1 [AZD2811] (first compound max 10 µM, 7x7, partner max 1 µM)", "Bliss excess", -0.0092],
  ["O=C(c1cc(Cc2n[nH]c(=O)c3ccccc23)ccc1F)N1CCN(C(=O)C2CC2)CC1 [Olaparib] + Cc1c2c(nn1C)CSCc1cc(n(C)n1)CSc1cc(c3ccccc3c1)OCCCc1c(C(=O)O)n(C)c3c-2c(Cl)ccc13 [AZD5991] (first compound max 10 µM, 7x7, partner max 1 µM)", "Bliss excess", -0.0643]
]}

*Q* Please tell me: Bliss excess of Cn1cnc2c(F)c(Nc3ccc(Br)cc3Cl)c(C(=O)NOCCO)cc21 [Selumetinib] + C=CCn1c(=O)c2cnc(Nc3ccc(N4CCN(C)CC4)cc3)nc2n1-c1cccc(C(C)(C)O)n1 [AZD1775] (first compound max 10 µM, partner max 1 µM) , system BICR78 (Oral Cavity Carcinoma)?;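 further: after 72 h of two-drug dosing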
*A* -0.0678

*Q* Queued: CC1(C)CCC(CN2CCN(c3ccc(C(=O)NS(=O)(=O)c4ccc(NCC5CCOCC5)c([N+](=O)[O-])c4)c(Oc4cnc5[nH]ccc5c4)c3)CC2)=C(c2ccc(Cl)cc2)C1 [Venetoclax] + C1CN(CCC1(C(=O)N[C@@H](CCO)C2=CC=C(C=C2)Cl)N)C3=NC=NC4=C3C=CN4 [Capivasertib] (first compound max 1 µM, 7x7, partner max 3 µM)
*A* -0.0342

*Q* Queued: COc1cccc(OCCCN)c1-c1cc(Nc2cnc(C#N)cn2)n[nH]1 [Prexasertib] + CCc1c2c(nc3ccc(O)cc13)-c1cc3c(c(=O)n1C2)COC(=O)[C@]3(O)CC [SN-38] (first compound max 1 µM, 7x7, partner max 0.3 µM)
*A* -0.0236

*Q* Queued: Cc1c2c(nn1C)CSCc1cc(n(C)n1)CSc1cc(c3ccccc3c1)OCCCc1c(C(=O)O)n(C)c3c-2c(Cl)ccc13 [AZD5991] + CN(C)CCCOc1ccc(-c2ccc3ncc4c(c3c2)n(C2CCOCC2)c(=O)n4C)cn1 [AZD0156] (first compound max 1 µM, 7x7, partner max 1 µM)
*A* 0.0199

*Q* Queued: COc1nnc2ccc(N3CCC(c4ccc(OCCN5CCN(C)C(=O)[C@H]5C)cc4)CC3)nn12 [AZD5153] + C[C@@H]1COCCN1C2=NC(=NC(=C2)C3(CC3)[S@](=N)(=O)C)C4=C5C=CNC5=NC=C4 [AZD6738] (first compound max 1 µM, 7x7, partner max 10 µM)
*A* 0.0056

*Q* Queued: Cc1c2c(nn1C)CSCc1cc(n(C)n1)CSc1cc(c3ccccc3c1)OCCCc1c(C(=O)O)n(C)c3c-2c(Cl)ccc13 [AZD5991] + CC1(C)CCC(CN2CCN(c3ccc(C(=O)NS(=O)(=O)c4ccc(NCC5CCOCC5)c([N+](=O)[O-])c4)c(Oc4cnc5[nH]ccc5c4)c3)CC2)=C(c2ccc(Cl)cc2)C1 [Venetoclax] (first compound max 1 µM, 7x7, partner max 1 µM)
*A* -0.0106

*Q* Queued: C=CCn1c(=O)c2cnc(Nc3ccc(N4CCN(C)CC4)cc3)nc2n1-c1cccc(C(C)(C)O)n1 [AZD1775] + C1CN(CCC1(C(=O)N[C@@H](CCO)C2=CC=C(C=C2)Cl)N)C3=NC=NC4=C3C=CN4 [Capivasertib] (first compound max 3 µM, partner max 3 µM)
*A* -0.0822

*Q* Queued: Cn1cnc2c(F)c(Nc3ccc(Br)cc3Cl)c(C(=O)NOCCO)cc21 [Selumetinib] + CCN(CCO)CCCOc1ccc2c(Nc3cc(CC(=O)Nc4cccc(F)c4)[nH]n3)ncnc2c1 [AZD2811] (first compound max 10 µM, 7x7, partner max 1 µM)
*A* 0.0275

*Q* Queued: CC1(C)CCC(CN2CCN(c3ccc(C(=O)NS(=O)(=O)c4ccc(NCC5CCOCC5)c([N+](=O)[O-])c4)c(Oc4cnc5[nH]ccc5c4)c3)CC2)=C(c2ccc(Cl)cc2)C1 [Venetoclax] + COc1cc(Nc2ncc3c(n2)-c2ccc(Cl)cc2C(c2c(F)cccc2OC)=NC3)ccc1C(=O)O [Alisertib] (first compound max 1 µM, 7x7, partner max 10 µM)
*A* -0.0276

----------
test system: YT (Other Blood Carcinomas); assay: combination Emax (second highest fraction inhibited in the dose matrix, 72 h); higher = more inhibition; extreme values may be limits of the assay
Catalogue of combination Emax values

The following compounds have reported results that may help.
{"columns": ["compound", "combination Emax"],
 "data": [
  ["CN(CCO)CC[C@H](CSc1ccccc1)Nc1ccc(S(=O)(=O)NC(=O)c2ccc(N3CCC([C@@H](O)c4ccccc4-c4ccc(Cl)cc4)CC3)cc2)cc1S(=O)(=O)C(F)(F)F [AZD4320] + Nc1ccn([C@@H]2O[C@H](CO)[C@@H](O)C2(F)F)c(=O)n1 [Gemcitabine] (first compound max 1 µM, 7x7, partner max 0.3 µM)", 0.862],
  ["CN(CCO)CC[C@H](CSc1ccccc1)Nc1ccc(S(=O)(=O)NC(=O)c2ccc(N3CCC([C@@H](O)c4ccccc4-c4ccc(Cl)cc4)CC3)cc2)cc1S(=O)(=O)C(F)(F)F [AZD4320] + CS(=O)(=O)CCNCc1ccc(-c2ccc3ncnc(Nc4ccc(OCc5cccc(F)c5)c(Cl)c4)c3c2)o1 [Lapatinib] (first compound max 1 µM, 7x7, partner max 10 µM)", 0.451]
]}

Consider the record given below.
*Q* What measured combination Emax goes with COc1cccc(OCCCN)c1-c1cc(Nc2cnc(C#N)cn2)n[nH]1 [Prexasertib] + Cc1cc2ncnn2cc1Nc1ncc2c(n1)n(C1CCOCC1)c(=O)n2C [AZD7648] (first compound max 1 µM, 7x7, partner max 10 µM) ?
*A* 0.928

The reported measurements were obtained from the supplement of paper PMC11061612.
